Quick reference for hepatocyte CLint at 0.1 µM among some compounds
experiment: Metabolic stability in primary human hepatocytes in suspension; type: in vitro ADME; conditions: human, cryopreserved human hepatocytes in suspension (5 donor pool)
experimentalEndpoint: hepatocyte CLint at 0.1 µM (µL/min/1e6 cells)

> print(dat)
                                   compound             units  recordedmeasurement
1  Cc1ccc(/C=C2/C(=O)C3(C)CCC2C3(C)C)cc1 (centres unmarked) [4-MBC, 4-methylbenzylidene camphor]  µL/min/1e6 cells                   34
2  CCCCC(CC)COC(=O)C(C#N)=C(c1ccccc1)c1ccccc1 (centres unmarked) [Octocrylene, octocrylene]  µL/min/1e6 cells                 27.8

* * *

assay: Blood partitioning assay for Rbp; assay type: in vitro ADME; details: both, human
# Lookup of reported blood plasma ratio at 60 min, 5 µM keyed by entry
experimentalEndpoint: blood plasma ratio at 60 min, 5 µM

> print(dat)
                                   molecule                experimentalendpoint  recordedmeasurement
1  Cc1ccc(/C=C2/C(=O)C3(C)CCC2C3(C)C)cc1 (stereo not drawn)  blood plasma ratio at 60 min, 5 µM                 0.88
2  CCCCC(CC)COC(=O)C(C#N)=C(c1ccccc1)c1ccccc1 (stereo not drawn)  blood plasma ratio at 60 min, 5 µM                 0.73
3  CCCCC(CC)COC(=O)C=Cc1ccc(OC)cc1 (stereo not drawn) [OMC, octyl methoxycinnamate]  blood plasma ratio at 60 min, 5 µM                 0.73

* * *

assay: Metabolic stability in primary human hepatocytes in suspension; assay type: in vitro ADME; details: human, cryopreserved human hepatocytes in suspension (5 donor pool)
experimentalEndpoint: hepatocyte CLint at 1 µM (µL/min/1e6 cells)

> print(dat)
                                   compound             units  recordedmeasurement
1  Cc1ccc(/C=C2/C(=O)C3(C)CCC2C3(C)C)cc1 (centres unmarked)  µL/min/1e6 cells                 32.2
2  CCCCC(CC)COC(=O)C(C#N)=C(c1ccccc1)c1ccccc1 (centres unmarked)  µL/min/1e6 cells                 15.2

* * *

assay: Cross filtration; format: in vitro ADME; conditions: both, human, pooled human plasma
experimentalEndpoint: fraction unbound at 60 min, 10 µM

> print(dat)
                                   compound  recordedmeasurement
1  Cc1ccc(/C=C2/C(=O)C3(C)CCC2C3(C)C)cc1 (stereo not drawn) [4-MBC, 4-methylbenzylidene camphor]               0.0004
2  CCCCC(CC)COC(=O)C(C#N)=C(c1ccccc1)c1ccccc1 (stereo not drawn) [Octocrylene, octocrylene]               0.0014
3  CCCCC(CC)COC(=O)C=Cc1ccc(OC)cc1 (stereo not drawn) [OMC, octyl methoxycinnamate]               0.0004

* * *

experiment: Metabolic stability in primary human hepatocytes in suspension; assay type: in vitro ADME; details: human, cryopreserved human hepatocytes in suspension (5 donor pool)
experimentalEndpoint: hepatocyte CLint (µL/min/1e6 cells)

> print(dat)
                                   compound  recordedmeasurement
1  Cc1ccc(/C=C2/C(=O)C3(C)CCC2C3(C)C)cc1 (stereo not shown) [4-MBC, 4-methylbenzylidene camphor]                   30
2  CCCCC(CC)COC(=O)C=Cc1ccc(OC)cc1 (stereo not shown) [OMC, octyl methoxycinnamate]                 43.3
3  C=CCN1CC[C@]23c4c5ccc(O)c4O[C@H]2C(=O)CC[C@@]3(O)[C@H]1C5 [Naloxone, reference compound]                 16.4
4  CCCCC(CC)COC(=O)C(C#N)=C(c1ccccc1)c1ccccc1 (stereo not shown) [Octocrylene, octocrylene]                 16.9

Ref: paper PMC10613959
